Provenance of the data: a melting point compilation (Tetko et al.; mined from patent text by program, amines drawn as free bases though some values may be those of a salt)

Can you tell me melting point for the items I'm about to list?

// known answers, use as guide
FC(F)(F)c1ccc(-c2cc(Oc3ccc4cccnc4c3)ncn2)c(NCC2CCCCC2)n1 :: 151 to 152 °C
Cc1cccc2[nH]c3c(c(C)nn3-c3ccccn3)c(=O)c12 :: 183 to 186 °C
CSc1ccc2sc(C(N)=O)c(N(C)C)c2c1 :: 140 to 142 °C
Ic1cccc(OCc2ccc3ccccc3c2)c1 :: 111 to 112 °C
N#CCc1ccc(NC(=O)OCc2cccnc2)cc1 :: 157 to 162 °C
CCC(=O)OC1(C(=O)C(O)OC(=O)C(NC(=O)OC(C)(C)C)C(C)C)CCC2C3CC(C)C4=CC(=O)C=CC4(C)C3C(O)CC21C (centres undefined) :: 110 to 130 °C

I have 3 molecules here; please give me melting point for each one.
1. CCc1nn2c(-c3ccc(Cl)cc3Cl)cnnc2c1C(CC)CC
2. COc1cc(C(=O)O)ccc1Cc1cn(C)c2ccc(C(=O)NCCC(C)C)cc12
3. Cc1c(CC2CCc3c(c4ccccc4n3CC3CCCC3)C2=O)ncn1C(c1ccccc1)(c1ccccc1)c1ccccc1 (centres undefined)

117 to 118 °C
190 to 191 °C
177 to 179 °C

----------
endpoint name: melting point

C=C=CP1(=O)OCC(C)(C)CO1 :: 128 to 133 °C
O=[N+]([O-])N=C1NCCCN1Cc1ccc(Cl)nc1 :: 113 to 117 °C
OCCc1cccc(Nc2ccc3nc(N[C@@H]4CCc5ccccc54)ccc3c2)c1 :: 109 °C
COC(=O)c1cc2ccc(C(=O)OC(C)(C)C)cc2[nH]1 :: 189 to 190 °C
O=C(NC1C(=O)N(CCCO)c2ccccc2N(c2ccccc2)C1=O)Oc1ccccc1 (stereo unspecified) :: 203 to 204 °C

Turning now to a further record.
What does the record list as melting point for N=C(N)c1ccc(N2CC(CN3CCCC(C(=O)O)C3)OC2=O)cc1 (stereo unspecified) ?
198 °C

----------
Can you tell me melting point for the items I'm about to list?

// known answers, use as guide
CCn1c(=O)c2c(nc(/C=C/c3ccc(OC(C)=O)cc3)n2C)n(CC)c1=O :: 198 °C
C=CCOc1ccc2c(C)cc(=O)oc2c1 :: 110 °C
COC(=O)C(C)Oc1ccc(Sc2cc(-n3nc(C)n(C(F)F)c3=O)c(Cl)cc2Cl)cc1 (configuration not stated) :: 100 to 101 °C

I have 6 compounds here; please give me melting point for each one.
1. O=c1ccn(-c2ccc(OC(F)F)cc2)nc1-c1ccnn1-c1ccccc1
2. COc1ccc(N2CCN(CCC3OCCc4cc(C#N)ccc43)CC2)cc1 (configuration not stated)
3. O=C(O)CCc1cccc(C(=O)c2ccccc2)c1
4. Cc1ccc2ncc(C)cc2c1
5. COc1cc2c(cc1F)C(=Cc1ccc(S(C)=O)cc1)C(C)=C2CC(=O)O (configuration not stated)
6. CCNCCC(=O)N1c2ccccc2CCc2ccc(NC(=O)OCC)cc21

1. 175 to 176 °C
2. 86 to 88 °C
3. 70 °C
4. 50 °C
5. 190 to 193 °C
6. 150 °C

I have 6 compounds here; please give me melting point for each one.
1. COC(=O)C=Cc1cn(C)nc1[N+](=O)[O-]
2. Cc1nc2ccccc2n2c(-c3cc(OCC(O)c4ccccn4)ccc3Cl)nnc12 (configuration not stated)
3. CCOP(=O)(NCc1ccc2c(c1)-c1n[nH]c(=O)c3cccc(c13)O2)OCC
4. CCOC(=O)c1sc(-c2ccc(C(F)(F)F)cc2)nc1COC(C)=O
5. COc1ccc(C(=O)O)cc1Oc1ccc(C(F)(F)F)cc1Cl
6. COC1=C(Br)CO/C1=C\c1cccc2ccccc12

1. 110 to 112 °C
2. 193 to 194 °C
3. 222 to 224 °C
4. 82 °C
5. 162 to 165 °C
6. 143 to 148 °C
